System: VeroE6 cells
OBSERVABLE: CC50 (µM)
Express the result in µM but write the number alone.

Which measured CC50 belongs to C=CC(=O)Nc1cccc(Nc2nc(Nc3ccc(NC4CN(CCF)C4)cc3OC)ncc2C(F)(F)F)c1 [CNX-2006, reference compound] , tested on VeroE6 cells?
9.2

---

Recorded CC50 for the following compounds
ASSAY_OVERVIEW: in vitro
EXPERIMENTAL_CONDITIONS: African green monkey

Solved cases (2 shown):
| COMPOUND | READING |
| --- | --- |
| C#Cc1cccc(Nc2ncnc3cc4c(cc23)OCCOCCOCCO4)c1 [Icotinib, icotinib, reference compound] | > 100 µM |
| C#Cc1cccc(Nc2ncnc3cc(OCCOC)c(OCCOC)cc23)c1 [Erlotinib, erlotinib, reference compound] | > 100 µM |

Quick one: CC50 for CC#CC(=O)Nc1ccc2ncnc(Nc3cccc(Br)c3)c2c1 [CL-387785, reference compound] ?
> 100 µM

Quick one: CC50 of C=CC(=O)Nc1cccc(Oc2nc(Nc3ccc(N4CCN(C)CC4)cc3OC)ncc2Cl)c1 [WZ4002, reference compound] ?
> 100 µM

Find the recorded CC50 belonging to CCN(CC)CCNc1ncc2c(Nc3cccc4c3CCC4)ncnc2n1 [Compound 7f] and report it.
> 50 µM

For the compound CCN(CC)CCNc1ncc2c(Nc3cccc4c3CCCC4)ncnc2n1 [Compound 7b] , what CC50 is on record?
> 50 µM

Param item = CN1CCN(c2ncc3c(Nc4cccc5c4CCC5)ncnc3n2)CC1 [Compound 7d] ; retrieve measured CC50.
> 50 µM

Using the record for CN1CCN(c2ncc3c(Nc4cccnc4)ncnc3n2)CC1 [Compound 7k] , report its CC50.
> 50 µM

---

Test system: Hep3B cells
OBSERVABLE: CC50 (µM)
Unit µM implied. Number only.

Observed CC50 on Hep3B cells for C=CC(=O)Nc1cccc(Nc2nc(Nc3ccc(NC4CN(CCF)C4)cc3OC)ncc2C(F)(F)F)c1 [CNX-2006, reference compound] , please.
4.3

---

Tested on: Hep2 cells
OBSERVABLE: CC50
Please append the unit to your numeric answer.

Request the reported CC50 associated with C=CC(=O)Nc1cccc(Nc2nc(Nc3ccc(NC4CN(CCF)C4)cc3OC)ncc2C(F)(F)F)c1 [CNX-2006, reference compound]
11.7 µM

---

System: influenza B (B/Ned/537/05)
ASSAY_OVERVIEW: Antiviral CPE reduction assay, influenza B in MDCK cells
Type: cell-based, influenza B virus
EXPERIMENTAL_CONDITIONS: Influenza B virus, MDCK, read-out: Antiviral Activity (EC50) Influenza B
OBSERVABLE: EC50

Example entries and their recorded answers appear below.
| MOLECULE | EC50 |
| --- | --- |
| CN1CCN(c2ncc3c(Nc4cccc5c4CCC5)ncnc3n2)CC1 [Compound 7d] | > 50 µM |
| C#Cc1cccc(Nc2ncnc3nc(NC4CC4)ncc23)c1 [Compound 7j] | > 50 µM |
| CN(C)CCNc1ncc2c(Nc3cccc4c3CCC4)ncnc2n1 [Compound 7e] | > 50 µM |
| CCN(CC)CCNc1ncc2c(Nc3cccnc3)ncnc2n1 [Compound 7l] | > 50 µM |
| c1cc2c(c(Nc3ncnc4nc(NC5CC5)ncc34)c1)CCC2 [Compound 7g] | > 50 µM |
| CC(N)C12CC3CC(CC(C3)C1)C2 (centres unmarked) [Rimantadine, rimantadine, reference compound] | > 100 µM |
| CCN(CC)CCNc1ncc2c(Nc3cccc4c3CCCC4)ncnc2n1 [Compound 7b] | > 50 µM |
| CC#CC(=O)Nc1ccc2ncnc(Nc3cccc(Br)c3)c2c1 [CL-387785, reference compound] | 4.5 µM |
| CCN(CC)CCNc1ncc2c(Nc3cccc4c3CCC4)ncnc2n1 [Compound 7f] | > 50 µM |
| CC(=O)N[C@H]1[C@H]([C@H](O)[C@H](O)CO)OC(C(=O)O)=C[C@@H]1N=C(N)N [Zanamivir, zanamivir, reference compound] | 0.4 µM |

// lookup EC50 for C#Cc1cccc(Nc2ncnc3cc(OCCOC)c(OCCO)cc23)c1 [OSI-420, reference compound]
> 100 µM

Name the recorded EC50 for C#Cc1cccc(Nc2ncnc3nc(NCCN(CC)CC)ncc23)c1 [Compound 7i] .
> 50 µM

What EC50 value was documented for this molecule, C#Cc1cccc(Nc2ncnc3cc(OCCOC)c(OCCOC)cc23)c1 [Erlotinib, erlotinib, reference compound] ?
> 100 µM

Give the measured EC50 of NC(=O)c1ncn([C@@H]2O[C@H](CO)[C@@H](O)[C@H]2O)n1 [Ribavirin, ribavirin, reference compound] .
7.4 µM

# query: EC50 of entry CN1CCN(c2ncc3c(Nc4cccnc4)ncnc3n2)CC1 [Compound 7k]
> 50 µM

Recorded EC50 of C#Cc1cccc(Nc2ncnc3nc(N4CCN(C)CC4)ncc23)c1 [Compound 7h] , please.
> 50 µM

What measured EC50 goes with CN(C)CCNc1ncc2c(Nc3cccc4c3CCCC4)ncnc2n1 [Compound 7a] ?
> 50 µM

Which measured EC50 value corresponds to C=CC(=O)Nc1cccc(Oc2nc(Nc3ccc(N4CCN(C)CC4)cc3OC)ncc2Cl)c1 [WZ4002, reference compound] ?
> 100 µM

Would you mind telling me what EC50 value was observed for c1cncc(Nc2ncnc3nc(NC4CC4)ncc23)c1 [Compound 7m] ?
> 50 µM

Record request: EC50 value, item c1cc2c(c(Nc3ncnc4nc(NC5CC5)ncc34)c1)CCCC2 [Compound 7c]
> 50 µM
